- procedure_details: UV-visible absorbance spectroscopy, 15 μM in 90% aqueous, 10% DMSO
- Type: physicochemical
- assay_setup: 90% aqueous 10% DMSO, depending on the ionization state
experimental_readout: Red shift of absorption spectra from 3-1 transposition versus known regiochemistry

Here is how some compounds turned out for Red shift of absorption spectra from 3-1 transposition versus known regiochemistry.
| compound | value_measured |
| --- | --- |
| O=C1OC2(c3ccccc31)c1ccc3cccc(O)c3c1Oc1c2ccc2cccc(O)c12 | 60-75 nm |
| COC(=O)c1ccccc1-c1c2ccc(=N)cc-2oc2c1ccc1cccc(O)c12 [Compound 15b] | 50-65 nm |
| COC(=O)c1ccccc1-c1c2ccc3cccc(O)c3c2oc2c1ccc1cccc(=O)c12 | 75-200 nm |
| COC(=O)c1ccccc1-c1c2ccc(=O)cc-2oc2c1ccc1cccc(O)c12 [Compound 15h] | 50 nm |
| COC(=O)c1ccccc1-c1c2ccc(=O)cc-2oc2c1ccc1cccc(O)c12 [Compound 15a] | 10-55 nm |

Shifting focus to the compound that follows.
Request: Provide only the value of recorded Red shift of absorption spectra from 3-1 transposition versus known regiochemistry for COC(=O)c1ccccc1-c1c2ccc(=[N+](C)C)cc-2oc2c1ccc1cccc(O)c12 [Compound 15d]
Result: 55-57 nm
